- System: PC-3 tumor
- protocol.conditions: mouse, in vivo
The reader will find reported tumor retention values listed item by item below.
All answers are understood in %, so give the number only.

Past entries and their recorded results:
CSCC[C@H](NC(=O)[C@H](CC(C)C)NC(=O)[C@H](Cc1c[nH]cn1)NC(=O)CNC(=O)[C@@H](NC(=O)[C@H](C)NC(=O)[C@H](Cc1c[nH]c2ccccc12)NC(=O)[C@H](CCC(N)=O)NC(=O)CCOCCOCCOCCOCCNC(=O)[C@H](Cc1cn(CCNC(=O)[C@H](CCCNC(=N)N)NC(=O)[C@H](CC(C)C)NC(=O)C2OC2C(=O)O)nn1)NC(=O)CN1CCN(CC(=O)O)CCN(CC(=O)O)CCN(CC(=O)O)CC1)C(C)C)C(N)=O (stereo partly drawn) [^177Lu-A-AG, metal not drawn]; 62
CC(C)C[C@H](NC(=O)C1OC1C(=O)O)C(=O)N[C@@H](CCCNC(=N)N)C(=O)NCCn1cc(C[C@H](NC(=O)CN2CCN(CC(=O)O)CCN(CC(=O)O)CCN(CC(=O)O)CC2)C(=O)NCCOCCOCCOCCOCCC(=O)N[C@H](Cc2ccccc2)C(=O)N[C@@H](CCC(N)=O)C(=O)N[C@@H](Cc2c[nH]c3ccccc23)C(=O)N[C@@H](C)C(=O)N[C@H](C(=O)NCC(=O)N[C@@H](Cc2c[nH]cn2)C(=O)N[C@@H](CC(C)C)[C@@H](O)CC(=O)N[C@H](CC(C)C)C(N)=O)C(C)C)nn1 (stereo partly drawn) [^177Lu-A-ANT, metal not drawn]; 32

Read the next record carefully.
Look up tumor retention for this compound: CSCC[C@H](NC(=O)[C@H](CC(C)C)NC(=O)[C@H](Cc1c[nH]cn1)NC(=O)CNC(=O)[C@@H](NC(=O)[C@H](C)NC(=O)[C@H](Cc1c[nH]c2ccccc12)NC(=O)[C@H](CCC(N)=O)NC(=O)CCOCCOCCOCCOCCNC(=O)[C@H](Cc1cn(CCNC(=O)[C@H](CCCNC(=N)N)NC(=O)[C@H](CC(C)C)NC(=O)CCC(=O)O)nn1)NC(=O)CN1CCN(CC(=O)O)CCN(CC(=O)O)CCN(CC(=O)O)CC1)C(C)C)C(N)=O [^177Lu-C-AG, metal not drawn]
32

###

- experimental.target: cathepsin B (human Liver) (Homo sapiens)
# maps each entry to its Ki
Numeric only. Scale: nM

Cc1cc(C)c(C(=O)OCC(=O)[C@H](CCCCN)NC(=O)[C@H](Cc2ccccc2)NC(=O)OCc2ccccc2)c(C)c1; 23

Switching to the query record.
Param item = Cc1cc(C)c(C(=O)OCC(=O)[C@H](CCCCNC(=O)Cn2cc(C[C@H](NC(=O)CN3CCN(CC(=O)O)CCN(CC(=O)O)CCN(CC(=O)O)CC3)C(=O)NCCC(=O)N[C@@H](CCCCN)C(=O)N3CCC[C@H]3C(=O)N(C)[C@@H](CCCNC(=N)N)C(=O)N[C@@H](CCCNC(=N)N)C(=O)N3CCC[C@H]3C(=O)N[C@@H](Cc3c(C)cc(O)cc3C)C(=O)N[C@H](C(=O)N[C@@H](CC(C)C)C(=O)O)C(C)(C)C)nn2)NC(=O)[C@H](Cc2ccccc2)NC(=O)OCc2ccccc2)c(C)c1 ; retrieve measured Ki.
26

###

- System: PC-3 tumor
- protocol.conditions: mouse, in vivo
measured.parameter: tumor retention (%)
Provide the reading as a plain figure in %.

For CC(C)C[C@H](NC(=O)CCC(=O)O)C(=O)N[C@@H](CCCNC(=N)N)C(=O)NCCn1cc(C[C@H](NC(=O)CN2CCN(CC(=O)O)CCN(CC(=O)O)CCN(CC(=O)O)CC2)C(=O)NCCOCCOCCOCCOCCC(=O)N[C@H](Cc2ccccc2)C(=O)N[C@@H](CCC(N)=O)C(=O)N[C@@H](Cc2c[nH]c3ccccc23)C(=O)N[C@@H](C)C(=O)N[C@H](C(=O)NCC(=O)N[C@@H](Cc2c[nH]cn2)C(=O)N[C@@H](CC(C)C)[C@@H](O)CC(=O)N[C@H](CC(C)C)C(N)=O)C(C)C)nn1 [^177Lu-C-ANT, metal not drawn] , what is its reported tumor retention?
15
